All figures here come from PubChem BioAssay (NCI).

- System: SNB-19 CNS
- method_notes: NCI-60 one-dose screen, 48 h (100 = growth as untreated, 0 = no growth, -100 = all killed)
- protocol_conditions: 10 µM
Compounds without any hit were thinned out: in the full panel of roughly 83,000, 20% have a hit.
property_label: growth (%)

>>> endpoint_value("O=C1NC(=NC23CC4CC(CC(C4)C2)C3)N/C1=C\\c1ccc2ncccc2n1")
-7.61
>>> endpoint_value("CN1CCN(c2ccc(Nc3nc(NCCCNC(=O)C4CCCCC4)c4sccc4n3)cc2)CC1")
77.3
>>> endpoint_value("O=C(CNc1nc(-c2ccccc2)cs1)Nc1ccc(Cl)cc1")
-100
>>> endpoint_value("CC(=O)Nc1ccc(-c2cn(-c3cccc(C(=O)Nc4cc(C(F)(F)F)cc(C(F)(F)F)c4)c3)nn2)cn1")
-42.4
>>> endpoint_value("Cc1ccc(NC(=O)c2ccc(-n3c(=O)[nH]c4ccccc4c3=O)cc2)cc1")
68.4

* * *

- System: UO-31 renal
- method_notes: NCI-60 one-dose screen, 48 h (100 = growth as untreated, 0 = no growth, -100 = all killed)
- protocol_conditions: 10 µM
The panel holds about 83,000 compounds, 20% with a hit somewhere; the sample as a whole holds those more often.
property_label: growth (%)

>>> endpoint_value("Clc1ccc2c(N/N=C/c3c[nH]c4ccc(Br)cc34)ccnc2c1")
-95.8
>>> endpoint_value("CNC(=O)c1cccc(N2CCc3c2ccc(NC(=O)Nc2ccc(N4CCN(C)CC4)c(C(F)(F)F)c2)c3F)c1")
-100
>>> endpoint_value("COc1ccc([C@H]2C(C(=O)c3ccc(Cl)cc3)C3(N[C@@H]2c2ccccc2)C(=O)Nc2ccc(Br)cc23)cc1 (some centres not stated)")
0.589
>>> endpoint_value("CCN1CCN(c2ccc(NC(=O)Nc3ccc(-c4cc(C(=O)NC(C)C)c5ncccc5n4)cc3)cc2C(F)(F)F)CC1")
-94.5
>>> endpoint_value("COc1cc2c(cc1OC)CN(CCCCOc1cc(O)c3c(=O)cc(-c4ccccc4)oc3c1)CC2")
51
>>> endpoint_value("CS(=O)(=O)Nc1ccc(-c2ccc3c(c2)ncn3-c2ccc(NC(=O)Nc3ccc(Br)cc3)cc2)cc1")
2.62
>>> endpoint_value("N#Cc1ccc(NC(=O)CSc2ccc(-c3ccc(Br)cc3)nn2)cc1")
54.6
>>> endpoint_value("CONC[C@]1(C)C=C2C(=O)[C@](C)(O)C3(CC3)C(C)=C2[C@H]1O")
-24.8
>>> endpoint_value("O=c1cc(-c2ccccc2)oc2cc(OCCCNCc3ccccc3)cc(O)c12")
-9.86
>>> endpoint_value("COc1cc2oc(-c3cccc(C(=O)Nc4ccc(Cl)cc4)c3)cc(=O)c2c(OCCNC(=O)CNC(=O)OC(C)(C)C)c1OC")
49.7
>>> endpoint_value("O=C(c1ccc(Cl)cc1)C1[C@H](c2ccccc2Br)[C@@H](c2ccccc2)NC12C(=O)Nc1ccc(Br)cc12 (some centres not stated)")
13.5
>>> endpoint_value("COc1ccc(C(=O)/C=C/c2cc(F)cc(C(F)(F)F)c2)cc1S(N)(=O)=O")
-92.7
>>> endpoint_value("O=C(NC(=S)N1CCN(c2ncnc3c2cnn3-c2ccccc2)CC1)c1ccc(Cl)cc1")
40
>>> endpoint_value("N#Cc1c(NC(=O)c2cccc(C(F)(F)F)c2)sc2c1CCC(O)=C2")
17.6
>>> endpoint_value("CC(C)C1=C[C@@]23CC[C@@H]4[C@](C)(CCC[C@]4(C)C(=O)NCc4ccccc4)[C@H]2C[C@@H]1[C@H]1C(=O)OC(=O)[C@H]13")
43.4
>>> endpoint_value("COc1ccc2nc(Nc3cccc(NC(=O)c4ccc(CN5CCN(C)CC5)c(C(F)(F)F)c4)c3)ccc2c1")
-48.2
>>> endpoint_value("CCCS(=O)(=O)c1oc(-c2ccc(F)cc2)nc1S(=O)(=O)c1ccc(F)cc1")
-100
